The reported numbers originate from ChEMBL document CHEMBL1126069.

- EXPERIMENTAL SYSTEM: Sex hormone-binding globulin (Homo sapiens) (UniProt P04278)
- Sequence (whole entry): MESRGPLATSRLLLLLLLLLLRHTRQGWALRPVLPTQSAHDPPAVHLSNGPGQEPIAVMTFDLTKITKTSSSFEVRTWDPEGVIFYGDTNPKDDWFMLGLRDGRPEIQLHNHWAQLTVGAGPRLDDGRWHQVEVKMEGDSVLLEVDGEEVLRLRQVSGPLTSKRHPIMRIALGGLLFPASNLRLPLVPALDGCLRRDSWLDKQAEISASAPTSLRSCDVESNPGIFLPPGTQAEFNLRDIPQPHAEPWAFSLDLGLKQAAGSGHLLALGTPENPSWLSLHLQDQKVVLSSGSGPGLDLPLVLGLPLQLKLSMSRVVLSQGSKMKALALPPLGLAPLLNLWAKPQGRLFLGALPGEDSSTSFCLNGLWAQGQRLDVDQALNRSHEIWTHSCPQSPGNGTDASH
- METHOD SUMMARY: Displacement of [3H]estradiol from human Sex steroid binding protein (SBP)
Listing of recorded relative binding affinity (RBA) by entry.
Just the number, please, no unit after it.

C[C@]12CC[C@H]3[C@@H](CCC4CC(=O)CC[C@@]43C)[C@@H]1C[C@H](F)[C@@H]2O (some centres undefined) | 385
C[C@]12CC[C@H]3[C@@H](CCC4=CC(=O)CC[C@@H]43)[C@@H]1CC[C@@H]2O | 29.9
C[C@@H]1CC2=CC(=O)CC[C@@H]2C2CC[C@@]3(C)C(C[C@@H](F)[C@]3(C)O)C21 (some centres undefined) | 3.1

Now for another entry.
Any idea what relative binding affinity (RBA) was measured for C[C@@H]1CC2=CC(=O)CC[C@@H]2C2CC[C@@]3(C)C(C[C@H](F)[C@]3(C)O)C21 (some centres undefined) ?
1.3
